Biological target: T1, RBFOX1 RRM (Homo sapiens, UniProt Q9NWB1 109-208)
T1 sequence: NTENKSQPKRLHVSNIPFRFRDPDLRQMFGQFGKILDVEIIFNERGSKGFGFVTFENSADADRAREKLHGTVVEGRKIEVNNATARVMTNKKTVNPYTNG
Assay: EMSA; HiTS-Eq, 1 nM pool, 10 min; buffer printed only for the single-RNA assays: 10 mM Tris pH 7.5, 150 mM NaCl, 3.4 mM EDTA, 0.001% NP-40, 30 C
Details: tags: His6 N-terminal (pET28a); label: 5' 32P
The full ranking holds about 16,000 sequences; the median of “ka relative to ugcaugu” is about 0.0091, and the highest 2% start at about 0.032. What follows is part of a selection rich in the highest values, with near analogues and random picks from the rest.
measure_name: binding signal

*Q* GET /values?readout=binding signal&item= CCGGAUC (DNA:RNA) RNA: GGGAGACCGGAAUUCAGAUUGUCCCCGGAUCUUAAAUCCCGUCGUAGCCACCA DNA 1: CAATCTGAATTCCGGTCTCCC DNA 2: TGGTGGCTACGACGGGATT
*A* 0.0104 KA relative to UGCAUGU

*Q* If you can, please state the reported binding signal value of CGGAAUC (DNA:RNA) RNA: GGGAGACCGGAAUUCAGAUUGUCCCGGAAUCUUAAAUCCCGUCGUAGCCACCA DNA 1: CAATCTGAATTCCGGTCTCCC DNA 2: TGGTGGCTACGACGGGATT .
*A* 0.0233 KA relative to UGCAUGU
